Test system: ACHN
Test: NCI tumour cell line growth inhibition, 48 h
Calls of active or inactive are those of the source. No stated cut-off is given here; in the data, active = GI50 up to about 1.1 µM and inactive = higher.
assay-metric: GI50

Q) Fill in: GI50 of CC(=O)Oc1ccc2c(c1)C(=O)c1nc(C)c(C)nc1C2=O is ___
A) 48.4 µM (inactive)

Q) Fill in: GI50 of O=c1c(NO)c([N+](=O)[O-])cnn1-c1ccccc1 is ___
A) 8.53 µM (inactive)

Q) Fill in: GI50 of O=C(O)Cc1cccc2c1OC(c1ccccc1)C(C(=O)c1ccccc1)C2=O (stereo not drawn) is ___
A) 40.3 µM (inactive)

====

Test system: IGROV-1
Experiment: NCI tumour cell line growth inhibition, 48 h
Calls of active or inactive are those of the source. No stated cut-off is given here; in the data, active = GI50 up to about 1.1 µM and inactive = higher.
assay-metric: GI50

Q) Fill in: GI50 of O=c1[nH]c(-c2ccccc2)nc2cc(Cl)ccc12 is ___
A) > 100 µM (inactive)

Q) Fill in: GI50 of CNC(=O)C1CCc2nnc(-c3ccccc3)n21 (stereo not drawn) is ___
A) > 100 µM (inactive)

Q) Fill in: GI50 of O=[N+]([O-])c1cc([N+](=O)[O-])c(C(Cl)C(Cl)c2ccccc2)cc1C(Cl)C(Cl)c1ccccc1 (stereo not drawn) is ___
A) 2.46 µM (inactive)
